# PROTOCOL SUMMARY: log P by HPLC on a reversed-phase column (C 18), EEC Directive 79/831 Annex V.A8
# Format: physicochemical
# CONDITION DETAILS: pH 7.8
The threshold is 3. Values of LOGP_NEUTRAL (log P (neutral)) beneath it are tagged 1; values meeting or exceeding it are tagged -1.

Query string: For this compound, is LOGP_NEUTRAL (log P (neutral)) lower than 3? CCS(=O)(=O)c1ccc(-n2ccc3ccc(Cl)cc32)nc1-c1nc2cc(C(F)(F)F)ncc2n1C
Result string: -1

* * *

Consider the following compounds and their measured LOGP_NEUTRAL (log P (neutral)) readings.
# PROTOCOL SUMMARY: log P by HPLC on a reversed-phase column (C 18), EEC Directive 79/831 Annex V.A8
# Assay type: physicochemical
# CONDITION DETAILS: pH 7.8
Simply state the number, no unit and no words.

For orientation, consider the following solved cases.
{"columns": ["MOLECULE", "RECORDED MEASUREMENT"],
 "data": [
  ["CCS(=O)(=O)c1ccc(-n2cccc3oc(=O)nc2-3)nc1-c1nc2cc(C(F)(F)F)ncc2n1C", 2.08],
  ["CCS(=O)(=O)c1ccc(-n2ccc3cc(Cl)cnc32)nc1-c1nc2cc(C(F)(F)F)ncc2n1C", 4.39],
  ["CCS(=O)(=O)c1ccc(-n2c(=O)[nH]c3ccccc32)nc1-c1nc2cc(C(F)(F)F)ncc2n1C", 2.62],
  ["CCS(=O)(=O)c1ccc(-n2nc3cccc(Br)n3c2=O)nc1-c1nc2cc(C(F)(F)F)ncc2n1C", 2.72],
  ["CCS(=O)(=O)c1ccc(-n2ncc3cc(Cl)ccc32)nc1-c1nc2cc(C(F)(F)F)ncc2n1C", 4.03],
  ["CCS(=O)(=O)c1ccc(-c2cccc3nn(C)cc23)nc1-c1nc2cc(C(F)(F)F)ncc2n1C", 2.67],
  ["CCS(=O)(=O)c1ccc(-n2nc3ccc(Cl)nn3c2=O)nc1-c1nc2cc(C(F)(F)F)ncc2n1C", 2.38],
  ["CCS(=O)(=O)c1ccc(-n2cnc3ccccc32)nc1-c1nc2cc(C(F)(F)F)ncc2n1C", 2.64]
]}

Now, please, on to the next compound.
Query string: Data request, read-out LOGP_NEUTRAL (log P (neutral)), for CCS(=O)(=O)c1ccc(N2Cc3ccccc3C2)nc1-c1nc2cc(C(F)(F)F)ncc2n1C
Result string: 3.63

* * *

Consider the following compounds and their measured LOGP_NEUTRAL (log P (neutral)) readings.
# PROTOCOL SUMMARY: log P by HPLC on a reversed-phase column (C 18), EEC Directive 79/831 Annex V.A8
# Type: physicochemical
# CONDITION DETAILS: pH 7.8
# Excerpt: Called log P (HCOOH) in the table. Called log P (neutral) in the table.

For orientation, consider the following solved cases.
{"columns": ["COMPOUND", "RECORDED MEASUREMENT"],
 "data": [
  ["CCS(=O)(=O)c1ccc(N2Cc3ccc(Cl)cc3C2)nc1-c1nc2cc(C(F)(F)F)ncc2n1C", 3.99],
  ["CCS(=O)(=O)c1ccc(-n2c(=O)n(C)c3ccccc32)nc1-c1nc2cc(C(F)(F)F)ncc2n1C", 3.06],
  ["CCS(=O)(=O)c1ccc(-n2cnc3nc(Cl)ccc32)nc1-c1nc2cc(C(F)(F)F)ncc2n1C", 2.53],
  ["CCS(=O)(=O)c1ccc(N2Cc3cccnc3C2=O)nc1-c1nc2cc(C(F)(F)F)ncc2n1C", 2.30],
  ["CCS(=O)(=O)c1ccc(N2Cc3ccc(Cl)cc3C2=O)nc1-c1nc2cc(C(F)(F)F)ncc2n1C", 3.79]
]}

Query string: Data request, read-out LOGP_NEUTRAL (log P (neutral)), for CC[S+]([O-])c1ccc(-n2cc3cccnc3n2)nc1-c1nc2cc(C(F)(F)F)ncc2n1C (stereo not shown)
Result string: 2.45

Query string: Next: CCS(=O)(=O)c1ccc(-n2ccc3cccnc32)nc1-c1nc2cc(C(F)(F)F)ncc2n1C
Result string: 3.74
